Target: Prothrombin (Homo sapiens, UniProt P00734)
Experiment: Inhibition of human thrombin
pIC50: −log10 of the molar value.

>  <molecule>
C[C@H](NC(=O)[C@@H](CO)NS(=O)(=O)c1ccc(C#N)cc1)C(=O)NC(Cc1ccc(N=C(N)N)cc1)P(=O)(Oc1ccccc1)Oc1ccccc1 (stereo partly drawn)

>  <assayed_system>
Prothrombin (Homo sapiens, UniProt P00734)

>  <pIC50>
5.12

$$$$
>  <molecule>
C[C@H](NC(=O)[C@@H](CO)NS(=O)(=O)c1cccs1)C(=O)NC(Cc1ccc(N=C(N)N)cc1)P(=O)(Oc1ccccc1)Oc1ccccc1 (stereo partly drawn)

>  <assayed_system>
Prothrombin (Homo sapiens, UniProt P00734)

>  <pIC50>
5.37

$$$$
>  <molecule>
Cc1ccc(C(=O)N[C@H](CO)C(=O)N[C@@H](C)C(=O)NC(Cc2ccc(NC(=N)N)cc2)P(=O)(Oc2ccccc2)Oc2ccccc2)cc1 (stereo partly drawn)

>  <assayed_system>
Prothrombin (Homo sapiens, UniProt P00734)

>  <pIC50>
4.17

$$$$
